Exercise: for every item that follows, state its recorded % Inhibition Fbw7 @ 10 µM.
- target: Fbw7 (UniProt Q969H0 263-707, limits assumed)
- Sequence (Q969H0 263-707 limits assumed): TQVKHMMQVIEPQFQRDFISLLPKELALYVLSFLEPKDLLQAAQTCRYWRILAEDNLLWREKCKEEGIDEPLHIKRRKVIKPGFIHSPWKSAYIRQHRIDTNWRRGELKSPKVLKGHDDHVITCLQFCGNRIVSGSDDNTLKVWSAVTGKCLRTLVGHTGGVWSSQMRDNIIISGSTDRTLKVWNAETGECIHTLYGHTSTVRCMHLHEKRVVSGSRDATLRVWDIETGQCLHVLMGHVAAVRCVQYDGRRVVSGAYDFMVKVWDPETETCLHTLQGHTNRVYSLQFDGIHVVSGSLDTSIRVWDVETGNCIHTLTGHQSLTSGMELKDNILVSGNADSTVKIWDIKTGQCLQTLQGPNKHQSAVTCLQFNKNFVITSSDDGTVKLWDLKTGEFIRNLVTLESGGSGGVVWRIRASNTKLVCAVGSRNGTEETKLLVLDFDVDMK
- assay: cell-based or functional assay
Starred links: 1 amine or outer side, 2 acyl side, 3 side chain; linkers in the order of their positions; H or OH if unused. Non-standard residues stand in square brackets, D forms with d. *: point of attachment. Phe(4-NO2) = N[C@@H](Cc1ccc([N+](=O)[O-])cc1)C(=O)O; Benzenesulfonyl(4-OMe) = COc1ccc(S(=O)(=O)*)cc1; 2Naphthylsulfonyl = O=S(=O)(c1ccc2ccccc2c1)*; Phe(3-F) = N[C@@H](Cc1cccc(F)c1)C(=O)O; 1Nal = N[C@@H](Cc1cccc2ccccc12)C(=O)O; Maleoyl = O=C(/C=C\C(=O)[*:2])[*:1]; Suc = O=C(CCC(=O)[*:2])[*:1]; Tos = Cc1ccc(S(=O)(=O)*)cc1
Give bare numbers, in %.

Consider the following illustrative entries.
Would you kindly share the measured % Inhibition Fbw7 @ 10 µM for Suc-EGY[1Nal]E-NH2 [Suc-EGY1NalE-NH2] ?
1

Another binder to look at: 2Naphthylsulfonyl-[dD]EG[Phe(3-F)]WE-NH2 (SMILES NC(=O)[C@H](CCC(=O)O)NC(=O)[C@H](Cc1c[nH]c2ccccc12)NC(=O)[C@H](Cc1cccc(F)c1)NC(=O)CNC(=O)[C@H](CCC(=O)O)NC(=O)[C@@H](CC(=O)O)NS(=O)(=O)c1ccc2ccccc2c1, also called UBP031) [2-NaphthylSO2-dEGF(3F)WE-NH2]
10

Another binder to look at: Suc-EG[Phe(3-F)][1Nal]E-NH2 [Suc-EGF(3F)1NalE-NH2]
3

Another binder to look at: {Benzenesulfonyl(4-OMe)}-[dD]EG[Phe(3-F)]WE-NH2 (SMILES COc1ccc(S(=O)(=O)N[C@H](CC(=O)O)C(=O)N[C@@H](CCC(=O)O)C(=O)NCC(=O)N[C@@H](Cc2cccc(F)c2)C(=O)N[C@@H](Cc2c[nH]c3ccccc23)C(=O)N[C@@H](CCC(=O)O)C(N)=O)cc1, also called UBP022) [4-(MeO)-PhSO2-dEGF(3F)WE-NH2]
0

Another binder to look at: Maleoyl-EG[Phe(3-F)][Phe(4-NO2)]E-NH2 (SMILES NC(=O)[C@H](CCC(=O)O)NC(=O)[C@H](Cc1ccc([N+](=O)[O-])cc1)NC(=O)[C@H](Cc1cccc(F)c1)NC(=O)CNC(=O)[C@H](CCC(=O)O)NC(=O)/C=C\C(=O)O) [Mal-EGF(3F)F(4NO2)E-NH2]
0

Another binder to look at: Suc-EGY[Phe(4-NO2)]E-NH2 (SMILES NC(=O)[C@H](CCC(=O)O)NC(=O)[C@H](Cc1ccc([N+](=O)[O-])cc1)NC(=O)[C@H](Cc1ccc(O)cc1)NC(=O)CNC(=O)[C@H](CCC(=O)O)NC(=O)CCC(=O)O) [Suc-EGYF(4NO2)E-NH2]
0

Turning to the following binder.
Would you kindly share the measured % Inhibition Fbw7 @ 10 µM for Tos-[dD]DG[Phe(3-F)]WE-NH2 (SMILES Cc1ccc(S(=O)(=O)N[C@H](CC(=O)O)C(=O)N[C@@H](CC(=O)O)C(=O)NCC(=O)N[C@@H](Cc2cccc(F)c2)C(=O)N[C@@H](Cc2c[nH]c3ccccc23)C(=O)N[C@@H](CCC(=O)O)C(N)=O)cc1, also called UBP025) [Ts-dDGF(3F)WE-NH2] ?
1
